Target under test: MDR1 (Homo sapiens)
Construct: host or cells: MDCK cells
Sequence (P08183 whole entry): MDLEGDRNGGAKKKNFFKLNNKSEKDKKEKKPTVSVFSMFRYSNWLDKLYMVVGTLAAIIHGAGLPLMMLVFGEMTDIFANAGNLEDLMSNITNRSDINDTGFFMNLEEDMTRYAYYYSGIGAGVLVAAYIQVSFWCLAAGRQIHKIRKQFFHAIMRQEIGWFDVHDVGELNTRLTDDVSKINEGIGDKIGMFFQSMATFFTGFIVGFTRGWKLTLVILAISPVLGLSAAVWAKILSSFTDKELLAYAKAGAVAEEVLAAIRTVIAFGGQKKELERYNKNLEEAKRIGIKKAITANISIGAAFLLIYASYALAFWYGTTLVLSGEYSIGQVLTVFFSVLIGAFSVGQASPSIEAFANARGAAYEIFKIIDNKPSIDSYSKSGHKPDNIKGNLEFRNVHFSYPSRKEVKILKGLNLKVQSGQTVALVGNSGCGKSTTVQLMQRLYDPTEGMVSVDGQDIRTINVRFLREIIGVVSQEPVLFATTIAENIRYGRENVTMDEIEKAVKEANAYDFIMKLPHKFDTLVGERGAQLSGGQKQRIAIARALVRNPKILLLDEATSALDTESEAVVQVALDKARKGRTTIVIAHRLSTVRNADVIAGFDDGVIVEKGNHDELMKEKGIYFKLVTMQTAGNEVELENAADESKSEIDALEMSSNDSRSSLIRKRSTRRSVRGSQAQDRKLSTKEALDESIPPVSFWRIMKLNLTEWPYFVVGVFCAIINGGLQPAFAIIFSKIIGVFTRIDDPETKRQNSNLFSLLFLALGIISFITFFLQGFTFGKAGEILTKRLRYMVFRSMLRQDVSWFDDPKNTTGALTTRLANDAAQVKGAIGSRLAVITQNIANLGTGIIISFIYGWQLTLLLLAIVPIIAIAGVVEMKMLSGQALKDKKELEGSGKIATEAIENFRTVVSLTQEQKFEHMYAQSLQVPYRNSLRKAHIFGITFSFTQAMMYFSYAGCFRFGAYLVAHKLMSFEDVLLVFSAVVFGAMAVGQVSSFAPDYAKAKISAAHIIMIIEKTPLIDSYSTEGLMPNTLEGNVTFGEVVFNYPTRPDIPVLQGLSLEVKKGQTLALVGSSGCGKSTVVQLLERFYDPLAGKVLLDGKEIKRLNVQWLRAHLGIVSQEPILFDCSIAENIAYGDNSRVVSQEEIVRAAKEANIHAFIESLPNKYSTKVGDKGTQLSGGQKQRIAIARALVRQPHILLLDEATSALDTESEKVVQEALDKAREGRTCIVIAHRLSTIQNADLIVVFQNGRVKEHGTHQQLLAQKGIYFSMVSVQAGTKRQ
Procedure summary: Bidirectional transport in MDR1-transfected MDCK cell monolayers
Type: in vitro ADME
Assay conditions: dog, MDCK-MDR1, MDR1-MDCK permeability assay, A→B; read-out: Calculated recovery, A→B direction
Measured attribute: recovery at 2 μM (%)

1. CC(C)NCC(O)COc1cccc2ccccc12 (stereo not drawn) ... 95
2. O=C1NCc2nc(-c3cnc(N4CC[C@@H](F)C4)cn3)ccc21 ... 61.9
3. C[C@H]1O[C@@H](O[C@H]2[C@@H](O)C[C@H](O[C@H]3[C@@H](O)C[C@H](O[C@H]4CC[C@@]5(C)[C@H](CC[C@@H]6[C@@H]5C[C@@H](O)[C@]5(C)[C@@H](C7=CC(=O)OC7)CC[C@]65O)C4)O[C@@H]3C)O[C@@H]2C)C[C@H](O)[C@@H]1O ... 79.7
